Measured kon accompanies every entry in the list below.
# Tgt: T1, Dimeric human CD48-mFc (human)
# T1 construct: the whole entry is the construct; also called hCD48-mFc
# T1 chain: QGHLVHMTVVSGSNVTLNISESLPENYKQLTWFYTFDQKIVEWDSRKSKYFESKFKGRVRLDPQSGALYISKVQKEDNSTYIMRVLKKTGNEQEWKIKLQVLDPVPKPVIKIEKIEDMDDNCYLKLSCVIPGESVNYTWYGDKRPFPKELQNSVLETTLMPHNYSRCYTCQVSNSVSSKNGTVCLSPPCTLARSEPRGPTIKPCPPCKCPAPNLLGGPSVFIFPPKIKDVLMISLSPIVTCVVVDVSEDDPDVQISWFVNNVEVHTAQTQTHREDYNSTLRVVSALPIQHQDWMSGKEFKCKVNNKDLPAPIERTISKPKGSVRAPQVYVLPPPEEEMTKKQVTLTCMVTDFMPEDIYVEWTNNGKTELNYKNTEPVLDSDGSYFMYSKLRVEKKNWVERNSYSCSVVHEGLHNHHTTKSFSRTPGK
# Test Details: SPR (Biacore), antibody captured by anti-Fc, CD48 in solution, 37 C
# Procedure: Measurements were conducted on a T100-2 BIACORE™ instrument (Biacore Life Sciences division of GE Healthcare, Piscataway, N.J.). […] The soluble CD48 was applied to the flow cell in separate injections at different concentrations, and kinetic association (kₐ) and dissociation (kd) rate constants were determined by fits to the kinetic binding data using Biacore software. […]
Dear colleague, please return just the value in M⁻¹ s⁻¹, with no unit written.

Prompt line: Consider the binder shown here: H4H1770P (antibody, human IgG4, V domains shown, Human IgG4 Fc (H4H)) VH: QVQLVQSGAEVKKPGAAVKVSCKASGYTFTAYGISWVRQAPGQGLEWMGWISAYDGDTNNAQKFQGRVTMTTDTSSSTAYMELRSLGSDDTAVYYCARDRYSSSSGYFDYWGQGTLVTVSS VL: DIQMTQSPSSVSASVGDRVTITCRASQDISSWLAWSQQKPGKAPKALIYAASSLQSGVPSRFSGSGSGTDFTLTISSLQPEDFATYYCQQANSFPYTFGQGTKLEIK What is its recorded kon?
Response line: 2.23e+06

Prompt line: Consider the binder shown here: H3M1766N (antibody, V domains shown, Human variable domains, mouse Fc (H3M); also called H2M1766N) VH: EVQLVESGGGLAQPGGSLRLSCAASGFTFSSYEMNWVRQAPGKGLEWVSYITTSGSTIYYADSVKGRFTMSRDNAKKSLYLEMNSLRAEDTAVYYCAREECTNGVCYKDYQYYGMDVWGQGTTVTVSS VL: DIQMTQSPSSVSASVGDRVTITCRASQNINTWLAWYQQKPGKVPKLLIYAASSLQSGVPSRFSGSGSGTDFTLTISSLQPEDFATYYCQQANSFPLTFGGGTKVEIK What is its recorded kon?
Response line: 949000

***
Prompt line: Consider the binder shown here: H4H1775P (antibody, human IgG4, V domains shown, Human IgG4 Fc (H4H)) VH: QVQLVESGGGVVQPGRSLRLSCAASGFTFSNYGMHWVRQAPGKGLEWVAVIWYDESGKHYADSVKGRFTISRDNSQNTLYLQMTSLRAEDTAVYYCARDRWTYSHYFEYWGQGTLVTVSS VL: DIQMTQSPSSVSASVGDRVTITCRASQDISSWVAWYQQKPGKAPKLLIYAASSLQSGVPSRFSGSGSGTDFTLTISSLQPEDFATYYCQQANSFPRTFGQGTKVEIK What is its recorded kon?
Response line: 522000
